All figures here come from the supplement of paper PMC6555819.

Record form. Attribute: PBM binding z-score. Fill in for each entry.
Tested on: THRa:RXRa (NR concentration 90 nM, RXRa partner concentration 90 nM)
Assay: PBM binding z-score (relative to random genomic background probes); higher = stronger binding; sequences stand for … in GC…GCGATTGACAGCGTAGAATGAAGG
Give bare numbers.

Completed entries (count: 3):
Sample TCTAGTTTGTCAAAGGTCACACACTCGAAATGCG — what was its PBM binding z-score?
4.07

Quick one: PBM binding z-score of TCTGTTAGGTCAACGATGGTCAGCTAATCTGCTA ?
3.73

Report PBM binding z-score for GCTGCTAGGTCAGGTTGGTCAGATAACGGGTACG please.
1.84

Consider the following items and state reported PBM binding z-score for each.
1. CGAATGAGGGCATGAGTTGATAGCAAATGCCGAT
2. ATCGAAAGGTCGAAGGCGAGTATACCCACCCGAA
3. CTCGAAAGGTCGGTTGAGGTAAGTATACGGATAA
4. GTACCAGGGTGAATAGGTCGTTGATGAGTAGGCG
5. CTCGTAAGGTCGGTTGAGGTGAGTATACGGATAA

[1.83, 1.75, 4.54, 1.21, 5.11]

Please supply PBM binding z-score for each of the following items, keeping them in order.
1. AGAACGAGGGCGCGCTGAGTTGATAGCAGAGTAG
2. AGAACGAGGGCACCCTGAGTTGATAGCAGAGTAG
3. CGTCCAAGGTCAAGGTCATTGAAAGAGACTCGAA
4. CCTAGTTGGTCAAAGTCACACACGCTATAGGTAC

1. 0.45
2. 1.59
3. 4.39
4. 0.212

----------
Tested on: RARb:RXRa (NR concentration 270 nM, RXRa partner concentration 90 nM)
Assay: PBM binding z-score (relative to random genomic background probes); higher = stronger binding; sequences stand for … in GC…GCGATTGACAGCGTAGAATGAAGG
Exercise: for every item that follows, state its recorded PBM binding z-score.
Give bare numbers.

Here's what some known entries look like.
Find PBM binding z-score (RARb:RXRa (NR concentration 270 nM, RXRa partner concentration 90 nM)) for the entry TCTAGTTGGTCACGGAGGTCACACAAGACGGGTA
3.87

Form: Entry = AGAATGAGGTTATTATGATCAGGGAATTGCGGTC | System = RARb:RXRa (NR concentration 270 nM, RXRa partner concentration 90 nM) | PBM binding z-score = ____
1.24

Further cases:
Param readout= PBM binding z-score; system= RARb:RXRa (NR concentration 270 nM, RXRa partner concentration 90 nM); entry= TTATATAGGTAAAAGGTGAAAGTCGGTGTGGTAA ; returns value.
1.86

----------
System: PPARa:RXRa (NR concentration 270 nM, RXRa partner concentration 90 nM)
Test: PBM binding z-score (relative to random genomic background probes); higher = stronger binding; sequences stand for … in GC…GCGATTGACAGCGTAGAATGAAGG
property_name: PBM binding z-score
Give bare numbers.

The following sequences have reported results that may help.
Requested read-out PBM binding z-score, target or system PPARa:RXRa (NR concentration 270 nM, RXRa partner concentration 90 nM), entry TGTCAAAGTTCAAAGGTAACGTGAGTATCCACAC
5.99

Provide value of PBM binding z-score for this record tested with PPARa:RXRa (NR concentration 270 nM, RXRa partner concentration 90 nM): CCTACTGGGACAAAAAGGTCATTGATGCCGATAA
4.96

Given the entry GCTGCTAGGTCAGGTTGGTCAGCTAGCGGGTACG , what PBM binding z-score was observed with PPARa:RXRa (NR concentration 270 nM, RXRa partner concentration 90 nM)?
1.36

// fetch PPARa:RXRa (NR concentration 270 nM, RXRa partner concentration 90 nM) PBM binding z-score for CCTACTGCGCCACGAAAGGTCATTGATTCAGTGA
4.35

For the record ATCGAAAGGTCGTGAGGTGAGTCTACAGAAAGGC , what value of PBM binding z-score is listed for PPARa:RXRa (NR concentration 270 nM, RXRa partner concentration 90 nM)?
4.99

Others:
Query PBM binding z-score on PPARa:RXRa (NR concentration 270 nM, RXRa partner concentration 90 nM) for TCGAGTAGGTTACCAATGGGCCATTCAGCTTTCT
1.09
